Cut-off 200 °C on boiling point, inclusive. At or above means fulfilled; below means not fulfilled.

Example entries and their recorded answers appear below.
CCB(CC)CC | not fulfilled
Cc1ccsc1 | not fulfilled
CC(C)C(C)(C)O | not fulfilled
CCN(CCO)c1ccccc1 | fulfilled
O=C1OCCO1 | fulfilled

Request: Answer whether boiling point of CC(C)CC(C)C(C)C (stereo unspecified) is greater than or equal to 200 °C.
Result: not fulfilled

Request: Answer whether boiling point of CC1(C)CC(N)CC(C)(C)N1 is greater than or equal to 200 °C.
Result: not fulfilled

Request: Answer whether boiling point of CCC(C)(C)CCC(C)C is greater than or equal to 200 °C.
Result: not fulfilled

Request: Answer whether boiling point of C[SiH]1O[SiH](C)O[SiH](C)O[SiH](C)O1 (stereo unspecified) is greater than or equal to 200 °C.
Result: not fulfilled

Request: Answer whether boiling point of C=CCCCCCC is greater than or equal to 200 °C.
Result: not fulfilled

###

Consider the following compounds; for each one, report its melting point.
Numbers only, in °C.

The following compounds have reported results that may help.
CC(=O)[C@H]1CC[C@H]2[C@@H]3CC[C@H]4C[C@H](N)CC[C@]4(C)[C@H]3CC[C@]12C | 126
CCC(C)CCC(C)(O)CC (stereo not drawn) | -67.5
Cc1occc1C(=O)Nc1ccccc1 | 110
COS(=O)(=O)c1ccc(C)cc1 | 28.5
CCCCCCCCCCCCCBr | 6.2
CC(c1ccccc1)c1ccccc1 | -17.9

Please give melting point for each item listed below.
1. CCCC(C)(Cl)Cl
2. CC(=O)c1ccsc1
3. CCCCN(C)C(=O)Nc1ccc(Cl)c(Cl)c1

Result:
1: 128; 2: 60; 3: 102

###

settings: fish
log10 biotransformation half-life (days) strictly under 0.2 means True; at 0.2 or over means False.

Example entries and their recorded answers appear below.
O=C(O)C1CC=CCC1C(=O)O (centres undefined) | True
CCCCCCCCCc1ccc(O)cc1 | True
Clc1ccc(-c2cc(Cl)ccc2Cl)cc1 | False
C1=Cc2cccc3cccc1c23 | False
c1ccc2c(c1)Nc1ccccc1S2 | True
CC(CC(C)(C)C)CC(C)(C)CC(C)(C)C (centres undefined) | False

Request: Hello, is log10 biotransformation half-life (days) of the following compound strictly smaller than 0.2? Brc1cc(Br)c(Br)cc1Br
Result: False

Request: Hello, is log10 biotransformation half-life (days) of the following compound strictly smaller than 0.2? CCCCc1ccc2cc(C)c(C)cc2c1
Result: False

Request: Hello, is log10 biotransformation half-life (days) of the following compound strictly smaller than 0.2? CNC(=O)CSP(=S)(OC)OC
Result: True

Request: Hello, is log10 biotransformation half-life (days) of the following compound strictly smaller than 0.2? N#Cc1ccc(C#N)cc1
Result: True

Request: Hello, is log10 biotransformation half-life (days) of the following compound strictly smaller than 0.2? Clc1cc(-c2c(Cl)c(Cl)cc(Cl)c2Cl)c(Cl)c(Cl)c1Cl
Result: False

Request: Hello, is log10 biotransformation half-life (days) of the following compound strictly smaller than 0.2? CC(C)(c1ccccc1)C(C)(C)c1ccccc1
Result: False

Request: Hello, is log10 biotransformation half-life (days) of the following compound strictly smaller than 0.2? Clc1ccc(-c2cccc(Cl)c2Cl)cc1Cl
Result: False
